- Test Description: human hepatoma cell viability loss – ATP luminescence, cytotoxicity control for P. falciparum antimalarial project, primary screen (AID 2303);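 note: 0% = DMSO wells and 100% = digitonin-killed cells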
- Cond: HepG2 viability, 24-48 h, at 10 µM, stronger effect = higher value
Mark class 1 only when inhibition stays strictly below 40%. Values equal to the cut-off are class 0.

COc1cc(-n2cnc3cc(-c4ccc([N+](=O)[O-])cc4)sc3c2=O)ccc1OCCN1CCCC1    class 0

Qu. I wonder whether Cc1cc(NCCC(=O)NCCOc2ccccc2)nc(NCCc2ccccc2)n1 has inhibition below 40%. Can you tell?
Ans. class 1

Qu. In the record for COc1cc2nc(N(C)Cc3cccc(I)c3)nc(N)c2cc1OC , is inhibition less than 40%?
Ans. class 1

Qu. Given the entry Clc1nc2ccccn2c1C=Cc1ccc2ccccc2n1 , would its reported inhibition be below 40%?
Ans. class 1
